src = the supplement of paper PMC10126150

Documented switch fluorescence ratio across a set of sequences
- System: ATP;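 further: ATP exposure 15 min at 22 °C before imaging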
- assay-text: switch fluorescence ratio, 500 uM ATP over buffer (Cy3 cluster intensity, sum of 5 cycles each) (fold (ratio)); higher = stronger signal-on switching upon ATP binding; sequences stand for … in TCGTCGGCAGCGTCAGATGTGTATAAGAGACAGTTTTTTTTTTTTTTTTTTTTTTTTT…TC
- condition-notes: aptamer strand: ATP DNA aptamer (quencher-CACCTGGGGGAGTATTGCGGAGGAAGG + anchor), 100 nM annealed; ATP concentration: 500 uM
Just the number, please, no unit after it.

residues: GGGCCCAAAG
test-system: ATP;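 further: ATP exposure 15 min at 22 °C before imaging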
switch fluorescence ratio: 1

residues: TTCCAGGCAA
test-system: ATP;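 further: ATP exposure 15 min at 22 °C before imaging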
switch fluorescence ratio: 4.47

residues: GAACGGCTCT
test-system: ATP;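 further: ATP exposure 15 min at 22 °C before imaging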
switch fluorescence ratio: 1.01

Answer with the recorded switch fluorescence ratio of "CGGAATTTGG" only.
1.02

Using known records, supply switch fluorescence ratio for "CATGTTATCC"
1.01

Provide switch fluorescence ratio value for the following sequence: "CAGGTCATTA"
0.978

Retrieve switch fluorescence ratio measured for "GGTTAAGGTC" and print it.
1

Provide only the value of recorded switch fluorescence ratio for "ATGCAGGCAC"
1.03

Let me know recorded switch fluorescence ratio for "CCGTCGGGGT" , thanks.
1.09

Given the sequence "TGAGTTGGTT" , write its reported switch fluorescence ratio.
0.973

* * *

- Tested on: ATP;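 further: ATP exposure 15 min at 22 °C before imaging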
- assay-text: switch fluorescence ratio, 500 uM ATP over buffer (Cy3 cluster intensity, sum of 5 cycles each) (fold (ratio)); higher = stronger signal-on switching upon ATP binding; sequences stand for … in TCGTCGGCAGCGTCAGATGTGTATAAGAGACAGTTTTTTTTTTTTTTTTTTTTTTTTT…TC
- condition-notes: aptamer strand: ATP DNA aptamer (quencher-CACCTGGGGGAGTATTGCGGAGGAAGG + anchor), 100 nM annealed; ATP concentration: 500 uM
Items are presented alongside their recorded switch fluorescence ratio.
API doc: respond with a numeric literal and nothing else, no unit.

Example cases with answers are listed next.
residues: AGCGGGGCGC
test-system: ATP;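 further: ATP exposure 15 min at 22 °C before imaging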
switch fluorescence ratio: 1.01

residues: AGATCGTTTT
test-system: ATP;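 further: ATP exposure 15 min at 22 °C before imaging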
switch fluorescence ratio: 0.999

residues: GAGTCACGTC
test-system: ATP;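 further: ATP exposure 15 min at 22 °C before imaging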
switch fluorescence ratio: 0.947

residues: TACAAGTTTG
test-system: ATP;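 further: ATP exposure 15 min at 22 °C before imaging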
switch fluorescence ratio: 0.996

Write down the reported switch fluorescence ratio (system: ATP) of "TTTGGAGGAG"
0.997

Retrieve switch fluorescence ratio on ATP; query "TTTGTATGTT"
0.991

Give switch fluorescence ratio for "TGGTAGGGGA" tested on ATP.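 Further: ATP exposure 15 min at 22 °C before imaging.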
1.04

Param request: switch fluorescence ratio | system ATP | item "TAGTTGTTCT"
0.962

Look up and report switch fluorescence ratio, with ATP as system, for "TACGGAAATG"
1.04

Lab note: record switch fluorescence ratio of "ACCGAGGCAT" tested on ATP.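 Further: ATP exposure 15 min at 22 °C before imaging.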
3.81

* * *

- Tested on: ATP;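 further: ATP exposure 15 min at 22 °C before imaging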
- assay-text: switch fluorescence ratio, 500 uM ATP over buffer (Cy3 cluster intensity, sum of 5 cycles each) (fold (ratio)); higher = stronger signal-on switching upon ATP binding; sequences stand for … in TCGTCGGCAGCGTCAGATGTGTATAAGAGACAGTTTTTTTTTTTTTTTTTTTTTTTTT…TC
- condition-notes: aptamer strand: ATP DNA aptamer (quencher-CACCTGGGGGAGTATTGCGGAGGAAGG + anchor), 100 nM annealed; ATP concentration: 500 uM
measured-quantity: switch fluorescence ratio
Just the number, please, no unit attached.

residues: AGGCGGAGTT
test-system: ATP;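 further: ATP exposure 15 min at 22 °C before imaging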
measured-quantity: switch fluorescence ratio
recorded-number: 0.97
--
residues: GCTGTTTACG
test-system: ATP;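 further: ATP exposure 15 min at 22 °C before imaging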
measured-quantity: switch fluorescence ratio
recorded-number: 1.03
--
residues: GGACGATCGG
test-system: ATP;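 further: ATP exposure 15 min at 22 °C before imaging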
measured-quantity: switch fluorescence ratio
recorded-number: 0.976
--
residues: ACGAATGCGT
test-system: ATP;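 further: ATP exposure 15 min at 22 °C before imaging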
measured-quantity: switch fluorescence ratio
recorded-number: 0.975

Provide measured switch fluorescence ratio value, entry: "TTAGATAGGT"
1.02

Return switch fluorescence ratio for the following sequence: "TACCGGGGTC"
1

Determine its reported switch fluorescence ratio: "ACAAGATCGG"
1.01

* * *

- Tested on: ATP;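 further: ATP exposure 15 min at 22 °C before imaging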
- assay-text: switch fluorescence ratio, 500 uM ATP over buffer (Cy3 cluster intensity, sum of 5 cycles each) (fold (ratio)); higher = stronger signal-on switching upon ATP binding; sequences stand for … in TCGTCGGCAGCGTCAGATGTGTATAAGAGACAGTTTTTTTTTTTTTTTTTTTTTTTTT…TC
- condition-notes: aptamer strand: ATP DNA aptamer (quencher-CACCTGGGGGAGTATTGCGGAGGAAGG + anchor), 100 nM annealed; ATP concentration: 500 uM
Please use 1 whenever switch fluorescence ratio is not below 1, and 0 whenever it is.

residues: ACCCATGCGA
assigned-label: 1
//
residues: CTAAGGGGGG
assigned-label: 1
//
residues: TGGGGTGCCG
assigned-label: 1
//
residues: TTGGTAGGGG
assigned-label: 1
//
residues: TAACATGGCG
assigned-label: 0
//
residues: CTCAACACCT
assigned-label: 1

Kindly review the next sequence as well.
Can "TATACGTGTG" be said to have switch fluorescence ratio at or above 1?
1

* * *

- System: ATP;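 further: ATP exposure 15 min at 22 °C before imaging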
- assay-text: switch fluorescence ratio, 500 uM ATP over buffer (Cy3 cluster intensity, sum of 5 cycles each) (fold (ratio)); higher = stronger signal-on switching upon ATP binding; sequences stand for … in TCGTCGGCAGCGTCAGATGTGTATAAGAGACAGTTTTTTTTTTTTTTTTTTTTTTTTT…TC
- condition-notes: aptamer strand: ATP DNA aptamer (quencher-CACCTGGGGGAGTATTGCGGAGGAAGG + anchor), 100 nM annealed; ATP concentration: 500 uM
measured-quantity: switch fluorescence ratio

residues: TAAGGAGAGG
measured-quantity: switch fluorescence ratio
result: 1.01

Next sequence, please.
Given "GGCCTCTTTT" , report its switch fluorescence ratio on ATP.
0.966

* * *

The following sequences are shown together with reported switch fluorescence ratio values.
- Test system: ATP;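 further: ATP exposure 15 min at 22 °C before imaging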
- assay-text: switch fluorescence ratio, 500 uM ATP over buffer (Cy3 cluster intensity, sum of 5 cycles each) (fold (ratio)); higher = stronger signal-on switching upon ATP binding; sequences stand for … in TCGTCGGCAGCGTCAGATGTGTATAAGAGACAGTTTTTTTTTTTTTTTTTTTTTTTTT…TC
- condition-notes: aptamer strand: ATP DNA aptamer (quencher-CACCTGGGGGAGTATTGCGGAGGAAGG + anchor), 100 nM annealed; ATP concentration: 500 uM
Give the value as a plain number.

Examples with their reported switch fluorescence ratio follow.
residues: TTACAAGTAT
test-system: ATP;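 further: ATP exposure 15 min at 22 °C before imaging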
recorded-number: 1.03
//
residues: TGATGGCCTG
test-system: ATP;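 further: ATP exposure 15 min at 22 °C before imaging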
recorded-number: 0.986
//
residues: CGTTAGGGGA
test-system: ATP;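 further: ATP exposure 15 min at 22 °C before imaging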
recorded-number: 0.999
//
residues: TAGGGCGACT
test-system: ATP;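 further: ATP exposure 15 min at 22 °C before imaging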
recorded-number: 1.04

Answer with reported switch fluorescence ratio of "TTGTGGGATA"
1.01

Read off the recorded switch fluorescence ratio for "TATTTATTGT"
1.01

Please list switch fluorescence ratio recorded for the sequence "GTGGGTCGGT"
0.979

Quick one: give measured switch fluorescence ratio for "CTTTAACGTG"
0.972

Identify measured switch fluorescence ratio associated with "TTCGGGGAT"
0.982

Consider the sequence "AGTTTGATGT" and give its recorded switch fluorescence ratio.
1

State, in one line, measured switch fluorescence ratio of "CTGTAGAGAG"
1.01

* * *

- Tested on: ATP;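 further: ATP exposure 15 min at 22 °C before imaging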
- assay-text: switch fluorescence ratio, 500 uM ATP over buffer (Cy3 cluster intensity, sum of 5 cycles each) (fold (ratio)); higher = stronger signal-on switching upon ATP binding; sequences stand for … in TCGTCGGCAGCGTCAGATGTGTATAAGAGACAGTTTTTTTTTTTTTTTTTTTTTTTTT…TC
- condition-notes: aptamer strand: ATP DNA aptamer (quencher-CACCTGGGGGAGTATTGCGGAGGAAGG + anchor), 100 nM annealed; ATP concentration: 500 uM
Catalogue of switch fluorescence ratio values
No unit in the answer, only the number.

For the sequence "ATGGGTTTTC" , report switch fluorescence ratio.
0.981

Return value of switch fluorescence ratio for input "CGTGTGGGGG" , no commentary.
1.02

Let me know recorded switch fluorescence ratio for "TTGAGACTCG" , thanks.
0.995

Annotate the sequence "TGGGAGGATG" with its measured switch fluorescence ratio.
1.01

Quote switch fluorescence ratio reported for "GTGAAAGGGA" please.
1.03

Give the reported value of switch fluorescence ratio for this record: "AACTTTTAAT"
1.02

For the sequence "AAATTAACAT" , give its reported switch fluorescence ratio.
1.08

* * *

- Tested on: ATP;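 further: ATP exposure 15 min at 22 °C before imaging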
- assay-text: switch fluorescence ratio, 500 uM ATP over buffer (Cy3 cluster intensity, sum of 5 cycles each) (fold (ratio)); higher = stronger signal-on switching upon ATP binding; sequences stand for … in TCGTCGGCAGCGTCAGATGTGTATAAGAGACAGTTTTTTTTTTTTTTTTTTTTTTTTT…TC
- condition-notes: aptamer strand: ATP DNA aptamer (quencher-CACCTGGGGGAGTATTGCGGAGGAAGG + anchor), 100 nM annealed; ATP concentration: 500 uM
# switch fluorescence ratio per record follows
Reply with just the number.

residues: TTTTGGTTAA
recorded-number: 1.02

Using known records, supply switch fluorescence ratio for "TTATAATTGA"
1.02

Return switch fluorescence ratio for the following sequence: "TGCGTATTTT"
1.02
